target: DNA gyrase (Escherichia coli, UniProt P0AES4+P0AES6); assay: Inhibitory activity against wild type Escherichia coli gyrase
QUANTITY_KIND: log10(IC50) (log10 of the value in µM)
// stored as log10 of IC50 expressed in µM

Consider the reported log10(IC50) for these compounds:
O=c1[nH]sc2c1c(=O)c1cc(F)c(-c3cccc(CO)c3)cc1n2C1CC1    -0.30
Nc1cccc(-c2cc3c(cc2F)c(=O)c2c(=O)[nH]sc2n3C2CC2)c1    0.49
O=c1[nH]sc2c1c(=O)c1cc(F)c(-c3cccc(O)c3)cc1n2C1CC1    -0.70
NCc1ccc(-c2cc3c(cc2F)c(=O)c2c(=O)[nH]sc2n3C2CC2)cc1    -1.00
O=c1[nH]sc2c1c(=O)c1cc(F)c(-c3ccc(CO)cc3)cc1n2C1CC1    -0.05
O=c1[nH]sc2c1c(=O)c1cc(F)c(-c3ccc(C4CCCCN4)cc3)cc1n2C1CC1 (centres undefined)    0.00

Value of log10(IC50) reported for the compound COc1c(N2CCNC(C)C2)c(F)cc2c(=O)c(C(=O)O)cn(C3CC3)c12 (centres undefined) is -0.30

Value of log10(IC50) reported for the compound O=c1[nH]sc2c1c(=O)c1cc(F)c(N3CCNCC3)cc1n2C1CC1 is -1.00

Value of log10(IC50) reported for the compound O=c1[nH]sc2c1c(=O)c1cc(F)c(-c3cccc(C4CCCCN4)c3)cc1n2C1CC1 (centres undefined) is -0.15

====

target: DNA topoisomerase 4 subunit A (Staphylococcus aureus); assay: Inhibitory activity against wild type Staphylococcus aureus topoisomerase 4
IC50: recorded values
Use nM as the unit, but write only the number.

Value of IC50 reported for the compound NCc1cccc(-c2cc3c(cc2F)c(=O)c2c(=O)[nH]sc2n3C2CC2)c1 is 200

Value of IC50 reported for the compound O=c1[nH]sc2c1c(=O)c1cc(F)c(-c3cccc(O)c3)cc1n2C1CC1 is 1600

====

molecular target: DNA topoisomerase 4 subunit A (Staphylococcus aureus, UniProt P0C1U9); assay: Inhibitory activity against wild type Staphylococcus aureus topoisomerase 4
Sequence (P0C1U9 whole entry): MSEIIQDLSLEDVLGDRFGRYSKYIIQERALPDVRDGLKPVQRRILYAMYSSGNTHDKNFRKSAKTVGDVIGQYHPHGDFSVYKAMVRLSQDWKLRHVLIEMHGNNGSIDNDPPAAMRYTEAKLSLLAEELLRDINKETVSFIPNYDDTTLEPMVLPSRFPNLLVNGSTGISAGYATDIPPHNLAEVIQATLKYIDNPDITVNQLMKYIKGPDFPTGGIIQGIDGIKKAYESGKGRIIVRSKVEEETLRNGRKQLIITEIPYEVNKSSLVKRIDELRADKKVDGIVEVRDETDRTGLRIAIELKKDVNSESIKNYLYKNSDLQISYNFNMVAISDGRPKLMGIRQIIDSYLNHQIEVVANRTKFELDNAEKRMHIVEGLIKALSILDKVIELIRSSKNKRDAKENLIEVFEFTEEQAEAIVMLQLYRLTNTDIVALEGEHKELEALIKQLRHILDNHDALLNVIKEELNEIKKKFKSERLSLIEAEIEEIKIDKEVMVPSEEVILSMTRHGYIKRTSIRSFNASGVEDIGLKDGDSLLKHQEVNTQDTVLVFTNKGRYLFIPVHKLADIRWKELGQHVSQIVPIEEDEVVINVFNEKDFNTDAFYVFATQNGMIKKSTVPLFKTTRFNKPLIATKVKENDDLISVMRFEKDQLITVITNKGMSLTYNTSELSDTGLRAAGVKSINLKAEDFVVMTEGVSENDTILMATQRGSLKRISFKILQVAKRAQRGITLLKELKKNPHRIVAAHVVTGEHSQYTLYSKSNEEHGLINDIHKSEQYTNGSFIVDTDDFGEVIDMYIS
Binning scheme for IC50: bottom range: < 3 µM; center range: ≥ 3 µM and < 10 µM; top range: ≥ 10 µM

O=c1[nH]sc2c1c(=O)c1cc(F)c(-c3cccc(F)c3)cc1n2C1CC1    center range
O=c1[nH]sc2c1c(=O)c1cc(F)c(-c3cccc(C4CCCCN4)c3)cc1n2C1CC1 (centres undefined)    bottom range
NCc1ccc(-c2cc3c(cc2F)c(=O)c2c(=O)[nH]sc2n3C2CC2)cc1    bottom range
Nc1ccc(-c2cc3c(cc2F)c(=O)c2c(=O)[nH]sc2n3C2CC2)cc1    top range
O=c1[nH]sc2c1c(=O)c1cc(F)c(-c3ccc(CO)cc3)cc1n2C1CC1    top range
O=c1[nH]sc2c1c(=O)c1cc(F)c(-c3ccc(C4CCCCN4)cc3)cc1n2C1CC1 (centres undefined)    bottom range
O=c1[nH]sc2c1c(=O)c1cc(F)c(-c3cccc(CO)c3)cc1n2C1CC1    center range

Please examine the following record next.
Classify this compound: COc1c(N2CCNC(C)C2)c(F)cc2c(=O)c(C(=O)O)cn(C3CC3)c12 (centres undefined) [GATIFLOXACIN] bottom range

====

target: DNA gyrase (Escherichia coli, UniProt P0AES4+P0AES6); assay: Inhibitory activity against wild type Escherichia coli gyrase
IC50: recorded values
Use nM as the unit, but write only the number.

NCc1cccc(-c2cc3c(cc2F)c(=O)c2c(=O)[nH]sc2n3C2CC2)c1    100
O=c1[nH]sc2c1c(=O)c1cc(F)c(-c3ccc(O)cc3)cc1n2C1CC1    800
Nc1ccc(-c2cc3c(cc2F)c(=O)c2c(=O)[nH]sc2n3C2CC2)cc1    300
CO/N=C1\CN(c2nc3c(cc2F)c(=O)c(C(=O)O)cn3C2CC2)CC1CN (stereo unspecified) [GEMIFLOXACIN]    500

Considering Nc1cc(-c2cc3c(cc2F)c(=O)c2c(=O)[nH]sc2n3C2CC2)ccc1F , its IC50 with DNA gyrase (Escherichia coli, UniProt P0AES4+P0AES6) was recorded as 300

Considering O=c1[nH]sc2c1c(=O)c1cc(F)c(-c3cccc(F)c3)cc1n2C1CC1 , its IC50 with DNA gyrase (Escherichia coli, UniProt P0AES4+P0AES6) was recorded as 1000

====

molecular target: DNA topoisomerase 4 subunit A (Staphylococcus aureus); assay: Inhibitory activity against wild type Staphylococcus aureus topoisomerase 4
QUANTITY_KIND: pIC50
pIC50 here is simply -log10 of the concentration when that concentration is written in mol/L.

Nc1cc(-c2cc3c(cc2F)c(=O)c2c(=O)[nH]sc2n3C2CC2)ccc1F    5.00
CO/N=C1\CN(c2nc3c(cc2F)c(=O)c(C(=O)O)cn3C2CC2)CC1CN (centres undefined) [GEMIFLOXACIN]    6.52
O=c1[nH]sc2c1c(=O)c1cc(F)c(N3CCNCC3)cc1n2C1CC1    6.30

Value of pIC50 reported for the molecule O=c1[nH]sc2c1c(=O)c1cc(F)c(-c3ccc(O)cc3)cc1n2C1CC1 is 4.60
